Target: PpTCP20-GST (Prunus persica var. nectarina cv. …, UniProt A0A251Q833 1-310)
Test: EMSA
Observed property: binding result

Some binders with recorded binding result:
• 5mT2 (GGG to TTT) (dsDNA) DNA 1: CATGTGTCATGGTTTTCTCAATCAAGTGGC DNA 2: GCCACTTGATTGAGAAAACCATGACACATG = no binding
• ABF2-F (PpABF2 promoter TBS) (dsDNA) DNA 1: ACCTAACCTAAGTGGGACCATGCCCTTTTT DNA 2: AAAAAGGGCATGGTCCCACTTAGGTTAGGT = binds
• 6mT (GGGCCC to AAATTT) (dsDNA) DNA 1: GGTAAATTTAATCAAGTGACATGACAGCGA DNA 2: TCGCTGTCATGTCACTTGATTAAATTTACC = no binding
• 6T (PpDAM6 promoter site-II) (dsDNA) DNA 1: GGTGGGCCCAATCAAGTGACATGACAGCGA DNA 2: TCGCTGTCATGTCACTTGATTGGGCCCACC = binds

Now look at this one.
The reported binding result of the binder 5T2 (dsDNA) DNA 1: CATGTGTCATGGTGGGCTCAATCAAGTGGC DNA 2: GCCACTTGATTGAGCCCACCATGACACATG was binds
